test system: NCI-H1417 complex spheroids, growth % test/control; assay: Anticancer human tumor NCI-H1417 cell line growth inhibition [Asc]; conditions: second compound 0.01 µM; first compound 10 µM; stronger effect = lower value;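 further: spheroids exposed to compounds for 7 days; 100% = DMSO vehicle control wells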
VALUE KIND: viability, T/C (%)
Numbers only here, please. The scale is %.

[in] Using known records, supply viability, T/C for C#Cc1c(F)ccc2cc(O)cc(-c3ncc4c(N5CC6CCC(C5)N6)nc(OCC56CCCN5CC(F)C6)nc4c3F)c12 (centres undefined) + CNC(C)C(=O)NC1CN(S(=O)(=O)c2cccc(S(=O)(=O)N3CCC4CCC(C(=O)NC(c5ccccc5)c5ccccc5)N4C(=O)C(NC(=O)C(C)NC)C3)c2)CCC2CCC(C(=O)NC(c3ccccc3)c3ccccc3)N2C1=O
[out] 66.4

[in] Report measured viability, T/C; entry is C=C(F)C(=O)N1CCN(c2nc(OCC3CCCN3C)nc3c2CCN(c2cccc4cccc(Cl)c24)C3)CC1CC#N (centres undefined) + CNC(C)C(=O)NC1CN(S(=O)(=O)c2cccc(S(=O)(=O)N3CCC4CCC(C(=O)NC(c5ccccc5)c5ccccc5)N4C(=O)C(NC(=O)C(C)NC)C3)c2)CCC2CCC(C(=O)NC(c3ccccc3)c3ccccc3)N2C1=O
[out] 0.22

[in] Tell me measured viability, T/C for O=C(c1cc(Cc2n[nH]c(=O)c3ccccc23)ccc1F)N1CCN(C(=O)C2CC2)CC1 + CNC(C)C(=O)NC1CN(S(=O)(=O)c2cccc(S(=O)(=O)N3CCC4CCC(C(=O)NC(c5ccccc5)c5ccccc5)N4C(=O)C(NC(=O)C(C)NC)C3)c2)CCC2CCC(C(=O)NC(c3ccccc3)c3ccccc3)N2C1=O please.
[out] 36.1

[in] Give the reported value of viability, T/C for this record: C=CC(=O)N1CCN(c2nc(=O)n(-c3c(C)ccnc3C(C)C)c3nc(-c4c(O)cccc4F)c(F)cc23)C(C)C1 (centres undefined) + CNC(C)C(=O)NC1CN(S(=O)(=O)c2cccc(S(=O)(=O)N3CCC4CCC(C(=O)NC(c5ccccc5)c5ccccc5)N4C(=O)C(NC(=O)C(C)NC)C3)c2)CCC2CCC(C(=O)NC(c3ccccc3)c3ccccc3)N2C1=O
[out] 103

---

tested on: NCI-H1417 complex spheroids, growth % test/control; test: Anticancer human tumor NCI-H1417 cell line growth inhibition [Asc]; details: second compound 1 µM; first compound 0.0949 µM; stronger effect = lower value;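 further: spheroids exposed to compounds for 7 days; 100% = DMSO vehicle control wells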
So I've got a bunch of compounds here, and I need their viability, T/C values.
Please state the figure in %; there is no need to write the unit.

[in] Specify reported viability, T/C for the compound shown: NC(=O)C(=Cn1cnc(-c2cc(C(F)(F)F)cc(C(F)(F)F)c2)n1)c1cncnc1 + CNC(C)C(=O)NC1CN(S(=O)(=O)c2cccc(S(=O)(=O)N3CCC4CCC(C(=O)NC(c5ccccc5)c5ccccc5)N4C(=O)C(NC(=O)C(C)NC)C3)c2)CCC2CCC(C(=O)NC(c3ccccc3)c3ccccc3)N2C1=O
[out] 86.9

[in] Write down viability, T/C measured for item CCN1C(C(=O)NC23CCC(C(=O)O)(CC2)CC3)C(c2cccc(Cl)c2F)C2(C(=O)Nc3cc(Cl)ccc32)C12CCCCC2 (stereo unspecified) + Cc1c(S(C)(=O)=O)c(-c2cc(F)cc(N3CCN(c4ccc(NS(=O)(=O)c5ccc(NC(CCN6CCC(C(=O)OCCCP(=O)(O)O)CC6)CSc6ccccc6)c(S(=O)(=O)C(F)(F)F)c5)cc4)CC3)c2)c(-c2ccc(Cl)cc2)n1C(C)C
[out] 4.76

[in] Give a short answer stating reported viability, T/C for NC(=O)C(=Cn1cnc(-c2cc(C(F)(F)F)cc(C(F)(F)F)c2)n1)c1cncnc1 + Cc1c(S(C)(=O)=O)c(-c2cc(F)cc(N3CCN(c4ccc(NS(=O)(=O)c5ccc(NC(CCN6CCC(C(=O)OCCCP(=O)(O)O)CC6)CSc6ccccc6)c(S(=O)(=O)C(F)(F)F)c5)cc4)CC3)c2)c(-c2ccc(Cl)cc2)n1C(C)C .
[out] 1.82

[in] Answer with the recorded viability, T/C for the compound listed here: Cc1nc(N2CCC3(CC2)COC(C)C3N)c(CO)nc1Sc1ccnc(N)c1Cl (stereo unspecified) + CNC(C)C(=O)NC1CN(S(=O)(=O)c2cccc(S(=O)(=O)N3CCC4CCC(C(=O)NC(c5ccccc5)c5ccccc5)N4C(=O)C(NC(=O)C(C)NC)C3)c2)CCC2CCC(C(=O)NC(c3ccccc3)c3ccccc3)N2C1=O
[out] 90.2

[in] For the compound Cc1nc(N2CCC3(CC2)COC(C)C3N)c(CO)nc1Sc1ccnc(N)c1Cl (stereo unspecified) + Cc1c(S(C)(=O)=O)c(-c2cc(F)cc(N3CCN(c4ccc(NS(=O)(=O)c5ccc(NC(CCN6CCC(C(=O)OCCCP(=O)(O)O)CC6)CSc6ccccc6)c(S(=O)(=O)C(F)(F)F)c5)cc4)CC3)c2)c(-c2ccc(Cl)cc2)n1C(C)C , give its measured viability, T/C value.
[out] 6.5

[in] # return recorded viability, T/C for input CCN1C(C(=O)NC23CCC(C(=O)O)(CC2)CC3)C(c2cccc(Cl)c2F)C2(C(=O)Nc3cc(Cl)ccc32)C12CCCCC2 (stereo unspecified) + CNC(C)C(=O)NC1CN(S(=O)(=O)c2cccc(S(=O)(=O)N3CCC4CCC(C(=O)NC(c5ccccc5)c5ccccc5)N4C(=O)C(NC(=O)C(C)NC)C3)c2)CCC2CCC(C(=O)NC(c3ccccc3)c3ccccc3)N2C1=O
[out] 106

Numbers sourced from PubChem BioAssay AID1963440.
